Sourced from PubChem BioAssay AID1566

Assay: inhibition of NOD2-driven NF-kB reporter – cell-based, luminescence, uHTS, HEK293 (AID 1566)
Settings: HEK293 NOD2/NF-kB luciferase reporter, at 4 µM
In all, about 290,000 compounds went through this assay and about 1,800 (0.62%) were called active. No stated cut-off is given here; in the data, active means inhibition above about 50%; inactive means the rest. Many of the other results were omitted from the sample, so actives are more common in it than they were. Peptide text beside a SMILES is read from it. * marks the point of attachment. OBn = c1ccc(CO*)cc1
Hello, when you answer, please use one of the following outcomes: active, inactive

What did this assay record as the result for COc1ccc(C2NC(=O)NC(C)=C2[N+](=O)[O-])cc1OC (stereo not given) ?
inactive

I'd appreciate the recorded outcome for Cc1nc(SCc2ccc(C(=O)O)cc2)nc2c1CCCC2 from this test.
active

Hi, sorry to bother you, what did the test record for CC(=O)NCC(=O)N[C@@H](CC(=O)OCc1ccccc1)C(=O)OCc1ccccc1 (Ac-Gly-Asp(OBn)-OBn) ?
inactive

Assay result, entry O=[N+]([O-])c1ccc(C2OCCO2)cc1CS(=O)(=O)c1ccccc1 — outcome?
inactive

Write down the call the test reported for this compound. Item: Cc1ccc(NC(=O)c2ccc3c(c2)OCCO3)cc1S(=O)(=O)Nc1cccc(Cl)c1
inactive
